Experiment: Phase I plasma pharmacokinetics
Assay type: in vivo, human
Settings: human, plasma, iv, 2.75 mg/kg, Cohort 4: 2.75 mg/kg; N = 6; 90-min IV infusion; Cycle 1 Day 3; plasma LC-MS; read-out: Time to peak plasma concentration, Mean (SD)
Ends that are not written are not given here.
readout_name: Tmax (min)
Number only, in min; omit the unit.

Give Tmax for the following sequence: KEFLHPSKVDLPR [SOR-C13] 40.3

----------
Experiment: Phase I plasma pharmacokinetics
Assay type: in vivo, human
Conditions: human, plasma, iv, 2.75 mg/kg, Cohort 4: 2.75 mg/kg; N = 6; 90-min IV infusion; Cycle 1 Day 8; plasma LC-MS; read-out: Peak plasma concentration, Mean (SD)
Ends that are not written are not given here.
readout_name: Cmax (ng/mL)
# output: bare number, implied unit ng/mL

Return value of Cmax for input KEFLHPSKVDLPR [SOR-C13] , no commentary. 239
